Cited source for all entries: patent US8362256B2

# TESTED_SYSTEM: c-Kit (Homo sapiens, UniProt P10721)
# Sequence (P10721 26-976): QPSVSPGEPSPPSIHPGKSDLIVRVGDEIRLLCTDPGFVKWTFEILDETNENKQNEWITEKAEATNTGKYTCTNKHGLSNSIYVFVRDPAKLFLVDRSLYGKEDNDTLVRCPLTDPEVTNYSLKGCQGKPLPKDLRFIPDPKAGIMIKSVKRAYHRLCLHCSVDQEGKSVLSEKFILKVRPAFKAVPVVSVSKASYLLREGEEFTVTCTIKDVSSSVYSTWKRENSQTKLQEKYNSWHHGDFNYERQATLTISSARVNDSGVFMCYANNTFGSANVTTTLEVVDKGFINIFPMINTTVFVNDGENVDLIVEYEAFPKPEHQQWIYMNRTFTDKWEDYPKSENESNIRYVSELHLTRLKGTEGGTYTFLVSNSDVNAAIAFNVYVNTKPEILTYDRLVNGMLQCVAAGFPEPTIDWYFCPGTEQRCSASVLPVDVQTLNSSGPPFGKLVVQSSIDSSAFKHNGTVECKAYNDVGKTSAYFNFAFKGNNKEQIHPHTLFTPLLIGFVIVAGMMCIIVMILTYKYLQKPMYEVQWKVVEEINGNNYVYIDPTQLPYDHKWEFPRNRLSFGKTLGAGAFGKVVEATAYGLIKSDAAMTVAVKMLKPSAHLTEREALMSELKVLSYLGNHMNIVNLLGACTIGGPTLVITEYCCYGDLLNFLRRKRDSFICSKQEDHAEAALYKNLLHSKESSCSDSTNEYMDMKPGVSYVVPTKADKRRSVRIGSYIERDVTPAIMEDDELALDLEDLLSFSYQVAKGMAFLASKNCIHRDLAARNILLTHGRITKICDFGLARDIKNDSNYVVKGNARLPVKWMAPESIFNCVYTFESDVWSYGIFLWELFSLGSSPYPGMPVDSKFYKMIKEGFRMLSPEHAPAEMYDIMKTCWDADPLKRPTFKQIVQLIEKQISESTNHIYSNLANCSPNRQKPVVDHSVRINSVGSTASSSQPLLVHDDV
PARAMETER: IC50

Please fill in: IC50 reported for N#CC1(c2ccc(NC(=O)c3cccnc3NCc3ccncc3)cc2)CCCC1 [Mesylate of compound A] = 420 nM

###

# TESTED_SYSTEM: c-Src (Homo sapiens)
# Sequence (P12931 whole entry, species assumed): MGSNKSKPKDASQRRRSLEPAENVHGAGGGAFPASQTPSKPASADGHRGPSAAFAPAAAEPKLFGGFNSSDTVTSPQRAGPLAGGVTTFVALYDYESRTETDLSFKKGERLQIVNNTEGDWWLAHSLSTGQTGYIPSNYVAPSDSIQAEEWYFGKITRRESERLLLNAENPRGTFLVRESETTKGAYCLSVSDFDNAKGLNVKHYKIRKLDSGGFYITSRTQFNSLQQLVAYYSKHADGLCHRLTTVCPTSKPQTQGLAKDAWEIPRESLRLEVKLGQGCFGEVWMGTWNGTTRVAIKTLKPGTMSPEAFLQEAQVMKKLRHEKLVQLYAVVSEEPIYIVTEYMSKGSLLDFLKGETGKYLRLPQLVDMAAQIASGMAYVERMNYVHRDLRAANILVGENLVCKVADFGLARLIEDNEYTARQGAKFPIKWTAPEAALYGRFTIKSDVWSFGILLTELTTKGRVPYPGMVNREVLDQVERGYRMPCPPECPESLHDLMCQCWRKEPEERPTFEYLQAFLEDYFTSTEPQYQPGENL
PARAMETER: pIC50
One number for each entry, as −log10 of the molar value.

Record summary for N#CC1(c2ccc(NC(=O)c3cccnc3NCc3ccncc3)cc2)CCCC1 [Mesylate of compound A] : reported pIC50 = 6.46

###

# TEST_DESCRIPTION: Bioavailability of compound A by oral administration (Example 4)
# Format: in vivo, Sprague-Dawley (SD) rats
# RUN_PARAMETERS: male, Sprague-Dawley, rat, plasma, po, 20 mg/kg, SD rats, 3 rats, read-out: Tmax, Mean ± SD
PARAMETER: Tmax (h)
One number for each entry, in h.

Sample "N#CC1(c2ccc(NC(=O)c3cccnc3NCc3ccncc3)cc2)CCCC1" ; Tmax observed: 1.33

###

# TEST_DESCRIPTION: Bioavailability of compound A by oral administration (Example 4)
# Assay type: in vivo, Sprague-Dawley (SD) rats
# RUN_PARAMETERS: male, Sprague-Dawley, rat, plasma, po, 20 mg/kg, SD rats, individual rats, read-out: MRT
PARAMETER: MRT (h)
Answers are plain numbers, in h.

Note to self: MRT recorded for "N#CC1(c2ccc(NC(=O)c3cccnc3NCc3ccncc3)cc2)CCCC1" was 3.2

###

# TEST_DESCRIPTION: in vivo
# RUN_PARAMETERS: male, Sprague-Dawley, rat, po, 1 mmol/kg, AUC0→8 h Mol dose
PARAMETER: AUC(0-t)

Value of measured AUC(0-t) for the entry N#CC1(c2ccc(NC(=O)c3cccnc3NCc3ccncc3)cc2)CCCC1 [Mesylate of compound A] : 17200 ng·h/mL

###

# TEST_DESCRIPTION: Bioavailability of compound A by oral administration (Example 4)
# Format: in vivo, Sprague-Dawley (SD) rats
# RUN_PARAMETERS: male, Sprague-Dawley, rat, plasma, po, 20 mg/kg, SD rats, individual rats, read-out: Tmax
PARAMETER: Tmax (h)
One number for each entry, in h.

Notebook: "N#CC1(c2ccc(NC(=O)c3cccnc3NCc3ccncc3)cc2)CCCC1" , Tmax read as 1.5

###

# TESTED_SYSTEM: EGFR1 (Homo sapiens, UniProt P00533)
# Sequence (P00533 25-1210): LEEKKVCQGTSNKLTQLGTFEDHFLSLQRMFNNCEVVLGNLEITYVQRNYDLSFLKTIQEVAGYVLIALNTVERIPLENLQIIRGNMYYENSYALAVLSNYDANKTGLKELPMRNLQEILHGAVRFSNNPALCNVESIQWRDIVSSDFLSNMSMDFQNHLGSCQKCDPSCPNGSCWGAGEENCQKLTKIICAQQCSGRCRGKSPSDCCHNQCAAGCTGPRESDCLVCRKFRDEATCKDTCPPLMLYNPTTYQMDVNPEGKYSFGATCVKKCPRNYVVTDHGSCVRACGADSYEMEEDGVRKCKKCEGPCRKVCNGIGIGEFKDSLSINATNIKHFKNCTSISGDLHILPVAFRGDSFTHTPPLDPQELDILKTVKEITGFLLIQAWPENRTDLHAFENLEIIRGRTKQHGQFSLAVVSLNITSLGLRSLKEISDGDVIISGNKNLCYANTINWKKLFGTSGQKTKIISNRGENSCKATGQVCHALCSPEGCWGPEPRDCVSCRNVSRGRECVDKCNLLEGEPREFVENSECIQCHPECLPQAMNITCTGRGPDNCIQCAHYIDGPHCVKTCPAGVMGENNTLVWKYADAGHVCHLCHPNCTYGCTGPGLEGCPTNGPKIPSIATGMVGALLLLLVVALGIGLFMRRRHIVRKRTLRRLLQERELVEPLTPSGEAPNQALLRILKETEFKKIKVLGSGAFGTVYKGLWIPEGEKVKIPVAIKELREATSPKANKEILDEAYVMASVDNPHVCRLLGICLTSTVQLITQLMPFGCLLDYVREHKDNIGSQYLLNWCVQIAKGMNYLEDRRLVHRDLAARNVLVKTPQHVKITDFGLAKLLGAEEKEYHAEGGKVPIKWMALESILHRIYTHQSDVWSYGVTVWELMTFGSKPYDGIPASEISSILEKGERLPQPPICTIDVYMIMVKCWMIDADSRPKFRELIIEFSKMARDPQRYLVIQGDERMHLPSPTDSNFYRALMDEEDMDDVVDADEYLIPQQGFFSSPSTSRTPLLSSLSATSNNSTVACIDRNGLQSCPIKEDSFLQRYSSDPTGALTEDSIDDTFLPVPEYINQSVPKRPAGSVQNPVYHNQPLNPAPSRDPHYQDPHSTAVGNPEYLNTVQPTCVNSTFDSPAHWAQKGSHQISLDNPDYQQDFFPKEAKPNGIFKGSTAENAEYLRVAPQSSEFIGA
PARAMETER: IC50

Recorded IC50 (compound N#CC1(c2ccc(NC(=O)c3cccnc3NCc3ccncc3)cc2)CCCC1 [Mesylate of compound A] ): > 10 µM

###

# TEST_DESCRIPTION: Bioavailability of compound A by oral administration (Example 4)
# Format: in vivo, Sprague-Dawley (SD) rats
# RUN_PARAMETERS: male, Sprague-Dawley, rat, plasma, po, 20 mg/kg, SD rats, individual rats, read-out: AUC0→8h
PARAMETER: AUC(0-t) (ng·h/mL)
Give bare numbers, in ng·h/mL.

GET /value?item= N#CC1(c2ccc(NC(=O)c3cccnc3NCc3ccncc3)cc2)CCCC1 [Compound A] &field=AUC(0-t) returns 172

###

# TEST_DESCRIPTION: Stability in different conditions, content by HPLC
# Type: physicochemical
# RUN_PARAMETERS: HPLC; initial purity 99.6%
PARAMETER: content after 6 Months Under Light (%)
Numbers only, in %.

// each listed molecule needs a value for content after 6 Months Under Light
1. N#CC1(c2ccc(NC(=O)c3cccnc3NCc3ccncc3)cc2)CCCC1.O=C(O)CCC(=O)O [Succinate of compound A]
2. Cl.N#CC1(c2ccc(NC(=O)c3cccnc3NCc3ccncc3)cc2)CCCC1 [Hydrochloride of compound A]

Output line:
1: 94.2; 2: 97.6

Dear colleague, could you send me content after 6 Months Under Light for each of the items below? Thanks.
1. N#CC1(c2ccc(NC(=O)c3cccnc3NCc3ccncc3)cc2)CCCC1 [Compound A]
2. N#CC1(c2ccc(NC(=O)c3cccnc3NCc3ccncc3)cc2)CCCC1 [Mesylate of compound A]
3. N#CC1(c2ccc(NC(=O)c3cccnc3NCc3ccncc3)cc2)CCCC1.O=P(O)(O)O [Phosphate of compound A]
4. N#CC1(c2ccc(NC(=O)c3cccnc3NCc3ccncc3)cc2)CCCC1.O=C(O)/C=C\C(=O)O [Maleate of compound A]

Output line:
1: 95.2; 2: 99.5; 3: 97.1; 4: 94.2
